Biological target: human MC1R (Homo sapiens, UniProt Q01726)
Construct: expressed in transfected cells; host or cells: HEK-293 cells stably expressing hMC1R and the GScAMP22F cAMP sensor
Sequence (Q01726 whole entry): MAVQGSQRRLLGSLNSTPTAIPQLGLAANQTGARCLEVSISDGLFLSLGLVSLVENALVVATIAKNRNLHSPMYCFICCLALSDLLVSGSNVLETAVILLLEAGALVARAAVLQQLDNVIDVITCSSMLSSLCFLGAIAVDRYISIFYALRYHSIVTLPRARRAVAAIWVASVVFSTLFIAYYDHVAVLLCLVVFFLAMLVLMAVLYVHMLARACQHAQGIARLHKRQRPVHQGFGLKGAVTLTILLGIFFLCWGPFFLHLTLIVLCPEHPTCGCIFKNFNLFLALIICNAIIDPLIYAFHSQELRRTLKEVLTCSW
Assay: split-luciferase cAMP sensor assay, agonist mode, hMC1R
Assay type: cell-based
Settings: MC4R versus MC1R
Positions of bridges follow the written chain, without caps; N, C: chain ends. Non-standard residues stand in square brackets, D forms with d. Residues, ends and D or L forms follow the SMILES beside them. d1Nal = N[C@H](Cc1cccc2ccccc12)C(=O)O; 2Pal = N[C@@H](Cc1ccccn1)C(=O)O; Nle = CCCC[C@H](N)C(=O)O
READOUT TYPE: MC4R selectivity vs MC1R
Respond with the number and no other words.

Observe how each entry below is paired with its result.
QUERY: Request the reported MC4R selectivity vs MC1R associated with CCCC[C@H](NC(=O)[C@H](CCCNC(=N)N)NC(C)=O)C(=O)N[C@H]1CSSC[C@@H](C(N)=O)NC(=O)[C@H](Cc2c[nH]c3ccccc23)NC(=O)[C@H](CCCNC(=N)N)NC(=O)[C@@H](Cc2ccccc2)NC(=O)[C@H](Cc2ccccn2)NC1=O [CTX-1619] (Ac-R[Nle]C[2Pal][dF]RWC-NH2; disulfide 3-8 (inferred))
RESULT: 86

QUERY: Request the reported MC4R selectivity vs MC1R associated with CCCC[C@H](NC(=O)[C@H](CCCNC(=N)N)NC(C)=O)C(=O)N[C@H]1CSSC[C@@H](C(N)=O)NC(=O)[C@H](Cc2c[nH]c3ccccc23)NC(=O)[C@H](CCCNC(=N)N)NC(=O)[C@@H](Cc2cccc3ccccc23)NC(=O)[C@H](CCCNC(=N)N)NC1=O [CTX-1611] (Ac-R[Nle]CR[d1Nal]RWC-NH2; disulfide 3-8 (inferred))
RESULT: 0.25

// switching to the query molecule
QUERY: Request the reported MC4R selectivity vs MC1R associated with `CC(=O)N[C@@H](CCCNC(=N)N)C(=O)N[C@H]1CSSC[C@@H](C(N)=O)NC(=O)[C@@H](Cc2c[nH]c3ccccc23)NC(=O)[C@H](CCCNC(=N)N)NC(=O)[C@@H](Cc2ccccc2)NC(=O)[C@H](Cc2c[nH]cn2)NC(=O)C(C)(C)NC1=O`
RESULT: 11
